- Test Target: T1, Human GDF15 native: naturally produced human GDF15 purchased from Peprotech (human, UniProt Q99988 195-308)
- T1 construct: Bought protein
- T1 sequence: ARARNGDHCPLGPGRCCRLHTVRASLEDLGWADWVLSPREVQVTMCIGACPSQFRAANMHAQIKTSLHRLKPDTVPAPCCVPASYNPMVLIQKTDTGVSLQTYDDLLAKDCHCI
- Test Description: Biacore SPR (rounded from Table 2, human GDF15 native)
Readout: pKd
Bear in mind: pKd is minus log10 of a mol/L concentration; give just that figure.

Illustrative cases are given below, each with its answer.
| Binder | Value Observed |
| --- | --- |
| ABGDF15-C (antibody, human IgG1, lambda, V domains shown, captured through anti-human Fc in the Biacore assay) VH: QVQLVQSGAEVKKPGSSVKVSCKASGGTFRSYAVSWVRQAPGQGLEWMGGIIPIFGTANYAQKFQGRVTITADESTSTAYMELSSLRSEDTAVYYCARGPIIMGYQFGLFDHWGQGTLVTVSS VL: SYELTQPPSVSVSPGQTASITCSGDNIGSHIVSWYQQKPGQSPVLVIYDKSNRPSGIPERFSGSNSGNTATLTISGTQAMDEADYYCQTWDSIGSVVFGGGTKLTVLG | 10.18 |
| ABGDF15-B (antibody, human IgG1, lambda, V domains shown, captured through anti-human Fc in the Biacore assay) VH: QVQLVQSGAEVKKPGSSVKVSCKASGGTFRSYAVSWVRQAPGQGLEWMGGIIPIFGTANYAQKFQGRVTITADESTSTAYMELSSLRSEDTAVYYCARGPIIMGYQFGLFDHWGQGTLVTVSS VL: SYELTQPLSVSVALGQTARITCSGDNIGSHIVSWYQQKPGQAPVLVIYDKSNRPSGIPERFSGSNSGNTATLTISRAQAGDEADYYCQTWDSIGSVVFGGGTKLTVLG | 9.94 |

Let me know recorded pKd for ABGDF15-G (antibody, human IgG1, kappa, V domains shown, captured through anti-human Fc in the Biacore assay) VH: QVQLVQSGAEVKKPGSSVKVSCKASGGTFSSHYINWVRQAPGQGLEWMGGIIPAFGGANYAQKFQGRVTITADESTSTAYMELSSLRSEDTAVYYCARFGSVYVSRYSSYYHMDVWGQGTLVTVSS VL: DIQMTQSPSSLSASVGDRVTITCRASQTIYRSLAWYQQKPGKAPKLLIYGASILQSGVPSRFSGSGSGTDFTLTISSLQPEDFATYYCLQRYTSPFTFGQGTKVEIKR , thanks.
10.06

Provide pKd value for the following binder: ABGDF15-F (antibody, human IgG1, lambda, V domains shown, captured through anti-human Fc in the Biacore assay) VH: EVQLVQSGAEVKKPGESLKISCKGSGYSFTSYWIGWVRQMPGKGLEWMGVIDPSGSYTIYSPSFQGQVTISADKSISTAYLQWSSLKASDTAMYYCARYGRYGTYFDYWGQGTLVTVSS VL: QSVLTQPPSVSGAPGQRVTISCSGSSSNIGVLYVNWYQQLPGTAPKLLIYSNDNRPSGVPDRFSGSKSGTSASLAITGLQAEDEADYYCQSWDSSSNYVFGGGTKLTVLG
10.43

Value source: patent US20190135908A1
